Hepatocyte growth factor receptor (Homo sapiens) data, read-out IC50
Sequence (P08581 whole entry): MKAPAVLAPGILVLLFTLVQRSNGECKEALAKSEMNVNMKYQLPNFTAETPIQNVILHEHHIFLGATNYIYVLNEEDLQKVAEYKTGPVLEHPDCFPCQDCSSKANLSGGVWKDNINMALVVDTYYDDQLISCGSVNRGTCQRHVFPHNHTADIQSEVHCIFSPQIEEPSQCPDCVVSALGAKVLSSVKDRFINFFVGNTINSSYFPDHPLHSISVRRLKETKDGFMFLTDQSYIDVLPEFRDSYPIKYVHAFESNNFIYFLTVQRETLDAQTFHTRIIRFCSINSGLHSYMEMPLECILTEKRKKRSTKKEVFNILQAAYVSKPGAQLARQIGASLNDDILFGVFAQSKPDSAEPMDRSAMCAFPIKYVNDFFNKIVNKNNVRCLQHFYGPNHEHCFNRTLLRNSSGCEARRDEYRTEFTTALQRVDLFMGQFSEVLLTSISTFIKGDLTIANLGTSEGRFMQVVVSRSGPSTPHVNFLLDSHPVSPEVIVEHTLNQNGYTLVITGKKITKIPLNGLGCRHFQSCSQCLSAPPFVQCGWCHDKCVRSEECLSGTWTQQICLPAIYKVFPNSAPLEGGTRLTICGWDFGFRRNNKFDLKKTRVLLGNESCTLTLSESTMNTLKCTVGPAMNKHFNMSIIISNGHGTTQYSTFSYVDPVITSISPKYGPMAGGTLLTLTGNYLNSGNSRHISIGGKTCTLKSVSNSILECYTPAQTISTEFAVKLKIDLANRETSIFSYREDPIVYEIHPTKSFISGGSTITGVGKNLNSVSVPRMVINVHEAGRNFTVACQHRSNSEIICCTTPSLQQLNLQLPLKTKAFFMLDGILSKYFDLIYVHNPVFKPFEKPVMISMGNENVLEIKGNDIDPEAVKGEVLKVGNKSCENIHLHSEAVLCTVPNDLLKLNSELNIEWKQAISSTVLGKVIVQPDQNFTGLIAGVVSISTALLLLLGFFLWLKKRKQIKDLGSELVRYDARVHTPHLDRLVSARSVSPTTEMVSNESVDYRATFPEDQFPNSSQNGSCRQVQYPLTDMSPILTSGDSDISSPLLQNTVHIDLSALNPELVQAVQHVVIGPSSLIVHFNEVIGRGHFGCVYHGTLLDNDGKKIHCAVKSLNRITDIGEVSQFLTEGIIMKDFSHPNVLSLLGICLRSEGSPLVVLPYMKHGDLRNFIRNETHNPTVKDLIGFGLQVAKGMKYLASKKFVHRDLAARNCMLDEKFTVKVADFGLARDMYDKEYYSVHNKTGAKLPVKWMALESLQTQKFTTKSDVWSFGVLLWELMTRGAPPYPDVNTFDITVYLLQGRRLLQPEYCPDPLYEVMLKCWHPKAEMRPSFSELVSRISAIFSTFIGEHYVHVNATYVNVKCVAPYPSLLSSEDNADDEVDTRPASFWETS

C[C@H](Nc1cc(-c2sc(C3CCN(C)CC3)nc2-c2ccc(F)cc2)ccn1)c1ccccc1 yielded IC50 of > 10 µM

CN1CCN(c2ccc3c(n2)nc(-c2ccc(F)cc2)n3-c2ccnc(NC3CCCC3)n2)CC1 yielded IC50 of > 10 µM

###

target: Mitogen-activated protein kinase 14 (Mus musculus); test: Inhibition of murine phosphorylated His-Mitogen-activated protein kinase p38 alpha.
Sequence (P47811 whole entry): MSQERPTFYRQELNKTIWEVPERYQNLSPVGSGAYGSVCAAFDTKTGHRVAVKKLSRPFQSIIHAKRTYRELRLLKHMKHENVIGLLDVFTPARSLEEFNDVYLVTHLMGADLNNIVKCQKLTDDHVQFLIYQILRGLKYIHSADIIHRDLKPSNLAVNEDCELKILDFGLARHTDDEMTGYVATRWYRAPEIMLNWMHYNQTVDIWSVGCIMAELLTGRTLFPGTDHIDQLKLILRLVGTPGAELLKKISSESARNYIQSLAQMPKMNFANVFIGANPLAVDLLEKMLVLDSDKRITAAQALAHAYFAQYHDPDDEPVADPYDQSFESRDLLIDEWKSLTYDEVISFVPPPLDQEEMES
For each of the compounds below, state its IC50.
Response body: numeric value in nM, unit text excluded.

Tested on Mitogen-activated protein kinase 14 (Mus musculus), the item C[C@H](Nc1nccc(-c2[nH]c(C3(O)CCN(C)CC3)nc2-c2ccc(F)cc2)n1)c1ccccc1 showed IC50 equal to 2

Tested on Mitogen-activated protein kinase 14 (Mus musculus), the item C[C@H](Nc1nccc(-n2c(-c3ccc(F)cc3)nc3nc(N4CCN(C)CC4)ccc32)n1)c1ccccc1 showed IC50 equal to 6

Tested on Mitogen-activated protein kinase 14 (Mus musculus), the item C[C@H](Nc1nccc(-c2oc(C3(O)CCN(C)CC3)nc2-c2ccc(F)cc2)n1)c1ccccc1 showed IC50 equal to 11
